Measured pIC50 (Vascular endothelial growth factor receptor 1 (Homo sapiens, UniProt P17948))
Hey, just a heads up that pIC50 is the negative log base 10 of the concentration in molar.

[[record]]
smiles = "CC(C)(C)c1ccc(OC[C@H](Cn2ccnc2[N+](=O)[O-])OC(=O)c2ccc(NC=C3C(=O)C=CC3=O)cc2)cc1"
recorded_metric = "pIC50"
endpoint_result = 3.74


// moving on: another record for pIC50
Query: Give the observed pIC50 of `CC(C)(C)c1ccc(OC[C@@H](Cn2ccnc2[N+](=O)[O-])OC(=O)c2ccc(NC=C3C(=O)C=CC3=O)cc2)cc1` for Vascular endothelial growth factor receptor 1 (Homo sapiens, UniProt P17948).
Response: 4.74
